- study_target: T1, TNFR1 (Homo sapiens, UniProt P19438)
- T1 chain: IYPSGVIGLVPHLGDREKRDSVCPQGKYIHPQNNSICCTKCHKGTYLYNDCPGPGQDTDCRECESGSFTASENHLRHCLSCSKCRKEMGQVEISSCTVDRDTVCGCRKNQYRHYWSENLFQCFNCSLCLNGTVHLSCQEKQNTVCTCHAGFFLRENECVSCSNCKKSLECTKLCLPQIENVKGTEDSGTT
- method_description: yeast display SC50
measured_parameter: apparent Kd (screen) (nM)

# count of solved cases: 2
binder: A11F (designed binder) MTLQELLREEFLRRAEAEAFRYALELLAEKFPEQKEYLLDLAEEIESQIRSLSGVDVEDVRKFLDKEWAWVKELLAEHPAELAEVEAARAARLAELRAEVEAKVAA
apparent Kd (screen) (nM): 0.718
//
binder: E101P (designed binder) MTLQELLREEALRRAEAEAFRYALELLAEKFPEQKEYLLDLAEEIESQIRSLSGVDVEDVRKFLDKEWAWVKELLAEHPAELAEVEAARAARLAELRAEVPAKVAA
apparent Kd (screen) (nM): 0.446

P: D59M (designed binder) MTLQELLREEALRRAEAEAFRYALELLAEKFPEQKEYLLDLAEEIESQIRSLSGVDVEMVRKFLDKEWAWVKELLAEHPAELAEVEAARAARLAELRAEVEAKVAA
Q: S51I (designed binder) MTLQELLREEALRRAEAEAFRYALELLAEKFPEQKEYLLDLAEEIESQIRILSGVDVEDVRKFLDKEWAWVKELLAEHPAELAEVEAARAARLAELRAEVEAKVAA
Task: Consider entries P and Q . Which has the numerically lower apparent Kd (screen)? Give the label of your selection.
Output: P

Cited source for all entries: paper PMC12416549
